Test system: INS-1E rat beta cells, no cytokines, CellTiter-Glo ATP, 48 h
Assay: cytokine-free beta-cell viability effect – INS-1E rat cells, ATP luminescence, cherry pick, counter-screen for beta-cell apoptosis protection project, dose response (AID 463229)
Reported metric: AC50

compound="Cc1ccc(C(=O)N2N=C(c3ccc(Br)cc3)CC2c2ccccc2O)cc1 (centres undefined)" measurement="7.3 µM"
compound=Cc1ccc(/C=N/NC(=O)Cc2ccc(Cl)cc2)c(O)c1 measurement="12.3 µM"
compound=Cc1cccc(NC(=O)c2ccc([N+](=O)[O-])s2)c1C measurement="26.1 µM"
compound=O=C(NCc1cccnc1)c1ccc(-c2cc3ccccc3oc2=O)cc1 measurement="5.35 µM"
compound=Cc1cccnc1Nc1nc(-c2ccccn2)cs1 measurement="2.58 µM"
compound=S=c1[nH]nc(-c2cc(-c3ccccc3)n[nH]2)n1/N=C/C(Br)=C/c1ccccc1 measurement="8.81 µM"
compound=CCN1/C(=C/c2cccc[n+]2C)Sc2ccc(OC)cc21 measurement="1.58 µM"
compound=CCN1CCN(c2c(Cl)cccc2NC(=O)c2ccc([N+](=O)[O-])o2)CC1 measurement="7.11 µM"
compound=CC1(C)CCN2CCC(C)(C)c3c(O)ccc1c32 measurement="13.2 µM"
compound=CCC(=NNC(=O)c1ccc2c(c1)nc(C)n2CC)c1cc(F)ccc1O measurement="9.84 µM"

Request the reported AC50 associated with Cc1ccc(-c2nn(-c3ccccc3)cc2/C=N/NC(=O)c2ccc(Br)o2)cc1 0.569 µM

// repeat for CCCCS(=O)(=O)/C=C\C=C/S(=O)(=O)CCCC and report 5.48 µM

// repeat for COc1cc(CC(=O)Nc2nc(-c3ccc(F)c(F)c3)cs2)cc(OC)c1OC and report 7.17 µM

// repeat for O=C(Nc1cc(S(=O)(=O)N2CCCCC2)ccc1Cl)c1ccccc1NS(=O)(=O)c1ccc(F)cc1 and report 3.66 µM

// repeat for N=c1c2c(-c3ccccc3)c(-c3ccccc3)n(Cc3ccco3)c2ncn1Cc1ccccc1 and report 7.01 µM

// repeat for Oc1c(Cl)cc(Cl)cc1/C=N/Nc1ncc(Br)cn1 and report 3.94 µM

// repeat for O=[N+]([O-])c1ccc(O)c(-c2cc(C(F)(F)F)nc(-c3ccccc3)n2)c1 and report 1.59 µM
